- applied.conditions: in acetone, 283.15 K
reported.endpoint: solubility (mole fraction)
No unit in the answer, please; the number alone is enough.

Request: GET /values?readout=solubility (mole fraction)&item= O=C1CCc2cc(OCCCCc3nnnn3C3CCCCC3)ccc2N1
Response: 0.00244

====

- applied.conditions: in n-butanol, 278.15 K
reported.endpoint: solubility (mole fraction)

Request: GET /values?readout=solubility (mole fraction)&item= O=C1CCc2cc(OCCCCc3nnnn3C3CCCCC3)ccc2N1
Response: 0.000656

====

- applied.conditions: in ethanol, 278.15 K
reported.endpoint: solubility (mole fraction)
No unit in the answer, please; the number alone is enough.

Request: GET /values?readout=solubility (mole fraction)&item= O=C1CCc2cc(OCCCCc3nnnn3C3CCCCC3)ccc2N1
Response: 0.000282
